SYSTEM_NAME: Tyrosine-protein kinase Lck (Homo sapiens)
Sequence (P06239 whole entry): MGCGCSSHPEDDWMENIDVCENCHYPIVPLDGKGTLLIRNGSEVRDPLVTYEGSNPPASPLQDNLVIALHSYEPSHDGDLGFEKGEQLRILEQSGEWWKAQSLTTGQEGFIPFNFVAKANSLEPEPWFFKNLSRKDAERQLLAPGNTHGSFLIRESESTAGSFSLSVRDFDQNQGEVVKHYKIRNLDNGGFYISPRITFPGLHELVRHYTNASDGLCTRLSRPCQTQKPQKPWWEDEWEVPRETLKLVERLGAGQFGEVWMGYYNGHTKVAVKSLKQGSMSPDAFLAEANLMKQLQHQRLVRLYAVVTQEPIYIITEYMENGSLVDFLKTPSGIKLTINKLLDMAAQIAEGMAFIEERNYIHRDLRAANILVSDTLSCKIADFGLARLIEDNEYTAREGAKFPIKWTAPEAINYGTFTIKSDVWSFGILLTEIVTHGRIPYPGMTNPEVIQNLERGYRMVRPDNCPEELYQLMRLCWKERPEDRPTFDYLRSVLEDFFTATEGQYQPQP
pIC50: −log10 of the molar value.
OUTCOME_MEASURE: pIC50

**Q:** Entry `Cc1cc(N2CCN(CCC#N)CC2)cc2nc(-c3c(NC[C@@H](O)c4ccccc4Cl)cc[nH]c3=O)[nH]c12` needs its pIC50 filled in; supply it.
**A:** < 5.82

----------
Test system: COLO 205
MEASUREMENT_NOTES: Cytotoxicity against human COLO205 cells
Format: functional, cell-based
OUTCOME_MEASURE: IC50 (nM)
One number for each entry, in nM.

**Q:** // fetch IC50 given entry `Cc1cc(N2CCN(CCC#N)CC2)cc2nc(-c3c(NC[C@@H](O)c4ccccc4Cl)cc[nH]c3=O)[nH]c12`
**A:** 120
